What koff was measured for each of the following?
Biological target: T1, purified human activated C1s protein, two-chain form (Homo sapiens, UniProt P09871 16-688)
T1 construct: Purified protein bought from EMD Millipore; Biotin-labeled in the clone screen; also called active C1s; native C1s protein
T1 sequence: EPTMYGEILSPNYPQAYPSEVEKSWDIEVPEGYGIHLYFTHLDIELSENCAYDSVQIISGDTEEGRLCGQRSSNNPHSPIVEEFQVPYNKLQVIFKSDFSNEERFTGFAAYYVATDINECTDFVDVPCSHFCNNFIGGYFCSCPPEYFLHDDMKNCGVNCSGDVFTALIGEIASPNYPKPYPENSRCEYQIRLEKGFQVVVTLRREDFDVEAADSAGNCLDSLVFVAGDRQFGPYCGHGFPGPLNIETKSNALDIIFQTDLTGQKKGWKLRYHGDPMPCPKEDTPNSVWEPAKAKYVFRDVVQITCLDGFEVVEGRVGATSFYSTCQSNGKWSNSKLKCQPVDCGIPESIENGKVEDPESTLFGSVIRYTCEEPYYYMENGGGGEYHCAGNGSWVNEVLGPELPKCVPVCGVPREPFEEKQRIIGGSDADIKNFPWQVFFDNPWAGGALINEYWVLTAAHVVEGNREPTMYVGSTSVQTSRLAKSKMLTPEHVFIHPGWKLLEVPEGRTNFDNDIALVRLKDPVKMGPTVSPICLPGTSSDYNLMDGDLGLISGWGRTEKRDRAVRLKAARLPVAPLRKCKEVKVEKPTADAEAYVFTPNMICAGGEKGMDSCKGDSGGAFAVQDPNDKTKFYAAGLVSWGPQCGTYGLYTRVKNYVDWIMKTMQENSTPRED
Assay: bio-layer interferometry (BLI), kinetic analysis
Kindly provide the numeric value in s⁻¹ only, without the unit symbol.

Please give the documented koff of antibody IPN-M1 (antibody, V domains shown, Mouse monoclonal antibody (NZBW hybridoma); of the 17, thirteen were IgG2a, one IgG2b, three IgG1; Same VL and VH as IPN-M3 and IPN-M13) VH: EVQLQQSGAELVRPGASVKLSCTASGFNIKDDYIHWVKQRPEQGLEWIGRIDPADDHTKYAPKFQDKATMTADTSSNTACLQLNSLTSEDTAVYYCAIYGSGWAWFPYWGQGTLVSVSA VL: DIVLTQSTDYLAVSLGQRATISCKASQSVDYDGDSYMNWYQQKPGQPPKLLIYAASNLESGIPARFSGSGSGTDFTLNIHPVEEEDAATYYCQQSNEDPWTFGGGTKLEIK
0.000213

Please give the documented koff of antibody IPN-M24 (antibody, V domains shown, Mouse monoclonal antibody (NZBW hybridoma)) VH: EVKLQQSGAELVRPGVSVKISCKVSGYTFTDYAMHCVKQSHAKSLEWIGVISIYNGDASYNQKFKDKATMTVDKSSSTSYMDLARLTSEESAVYNCVREAPYLITTVFYAMDYWGQGTSVTVSS VL: DIVMTQSPAIMSASPGEKVTMTCSANSSISYMHWYQQKPGTSPKRWIYDTSKLASGVPTRFSGSGSGTSYSLTISSMEAEDAATYYCHQRSFYLTFGSGTKLEIK
0.000499

Please give the documented koff of antibody IPN-M11 (antibody, V domains shown, Mouse monoclonal antibody (NZBW hybridoma)) VH: QVQLQQSGAELVRPGASVKLSCTASGFNIKDDYIHWVKQRPEQGLEWIGRIDPADDHTKYAPKFQDKATMTADTSSNTACLQLNSLTSEDTAVYYCAIYGSGWAWFPYWGQGTLVSVSA VL: DIVMTQSPDYLAVSLGQRAPISCKASQSVDYDGDSYMNWYQQKPGQPPKLLIYAASNLEFGIPTRFSGSGFGTDFPLNIHPVEEEDAATYYCQQSNEDPWTFGGGPKLEIK
0.000182

Please give the documented koff of antibody IPN-M3 (antibody, V domains shown, Mouse monoclonal antibody (NZBW hybridoma); Same VL and VH as IPN-M1 and IPN-M13) VH: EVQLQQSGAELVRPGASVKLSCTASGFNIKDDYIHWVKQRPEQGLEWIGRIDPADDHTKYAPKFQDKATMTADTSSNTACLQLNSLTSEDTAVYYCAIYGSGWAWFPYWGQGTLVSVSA VL: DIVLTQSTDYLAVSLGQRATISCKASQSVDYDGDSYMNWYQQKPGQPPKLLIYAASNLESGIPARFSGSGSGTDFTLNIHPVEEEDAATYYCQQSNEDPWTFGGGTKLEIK
0.000158
